Molecular target: Melanocyte-stimulating hormone receptor (Homo sapiens, UniProt Q01726)
Sequence (Q01726 whole entry): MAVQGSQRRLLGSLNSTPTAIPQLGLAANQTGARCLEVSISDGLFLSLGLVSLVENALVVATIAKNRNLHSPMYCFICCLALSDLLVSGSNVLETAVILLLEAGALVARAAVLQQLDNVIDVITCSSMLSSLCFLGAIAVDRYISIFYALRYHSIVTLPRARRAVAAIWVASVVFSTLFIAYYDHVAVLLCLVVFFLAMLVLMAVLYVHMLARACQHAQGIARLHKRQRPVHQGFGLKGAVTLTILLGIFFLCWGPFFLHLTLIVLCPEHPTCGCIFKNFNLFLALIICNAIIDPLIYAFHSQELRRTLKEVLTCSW
Experiment: Agonist activity at human MC1R assessed as increase in alpha-MSH induced cAMP level
quantity_kind: EC50 (nM)

Solved entries:
CC(C)(C)N1C[C@@H](C(=O)Nc2nccn2Cc2ccccc2N2CCCCC2)[C@H](c2ccc(F)cc2F)C1.Cl: 339
CC(C)(C)N1C[C@@H](C(=O)Nc2nccn2Cc2ccccc2)[C@H](c2ccc(F)cc2F)C1: 4660
CC(C)(C)N1C[C@@H](C(=O)Nc2nccn2Cc2ccccc2N2CCOCC2)[C@H](c2ccc(F)cc2F)C1.Cl: 219
CC(C)(C)N1C[C@@H](C(=O)Nc2nccn2Cc2ccccc2N2CCC(C(N)=O)CC2)[C@H](c2ccc(F)cc2F)C1.Cl: 386
CC(C)(C)N1C[C@@H](C(=O)Nc2nccn2Cc2ccccc2Cl)[C@H](c2ccc(F)cc2F)C1: 1270
Cc1ccc(Cn2ccnc2NC(=O)[C@@H]2CN(C(C)(C)C)C[C@H]2c2ccc(F)cc2F)c(N2CCC(C(=O)O)CC2)c1: 318

[I] CC(C)(C)N1C[C@@H](C(=O)Nc2nccn2Cc2ccccc2N2CCC(CC(=O)O)CC2)[C@H](c2ccc(F)cc2F)C1
[II] CC(C)(C)N1C[C@@H](C(=O)Nc2nccn2Cc2ccccc2-c2ccccc2)[C@H](c2ccc(F)cc2F)C1
*Q* Would you let me know which has the greater EC50 value, I or II ? // respond with label for picked entry
*A* I

Data provenance: ChEMBL document CHEMBL5150041
